measured-on: T1, human CD4 on human PBMCs (human, UniProt P01730 26-458)
T1 construct: whole, on cells; also called hCD4
protocol-details: FACS, clonal hybridoma supernatant on PBMCs
Assign gMFI of CD4+ to each entry below.
One number for each entry, in gMFI.

// solved cases for gMFI of CD4+ follow
| binder | gMFI of CD4+, gMFI |
| --- | --- |
| 75110_06G04A (antibody, V domains shown) VH: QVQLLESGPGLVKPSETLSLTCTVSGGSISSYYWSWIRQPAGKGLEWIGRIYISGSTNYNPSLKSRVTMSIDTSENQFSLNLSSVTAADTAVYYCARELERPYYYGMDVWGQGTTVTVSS VL: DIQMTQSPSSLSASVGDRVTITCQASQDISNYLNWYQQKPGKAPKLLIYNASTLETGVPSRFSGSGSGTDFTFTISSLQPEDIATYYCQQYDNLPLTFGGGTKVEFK | 307000 |
| 75110_07B16A (antibody, V domains shown) VH: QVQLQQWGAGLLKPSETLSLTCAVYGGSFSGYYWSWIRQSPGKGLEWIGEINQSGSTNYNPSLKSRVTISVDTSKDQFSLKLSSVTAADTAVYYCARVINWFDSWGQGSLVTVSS VL: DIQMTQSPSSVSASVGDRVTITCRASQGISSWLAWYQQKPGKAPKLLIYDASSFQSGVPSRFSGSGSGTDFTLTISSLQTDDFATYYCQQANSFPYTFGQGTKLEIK | 189000 |
| 75110_07H07A (antibody, V domains shown) VH: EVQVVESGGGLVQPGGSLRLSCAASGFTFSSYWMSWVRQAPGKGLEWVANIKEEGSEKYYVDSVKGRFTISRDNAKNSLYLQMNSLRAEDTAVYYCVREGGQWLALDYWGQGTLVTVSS VL: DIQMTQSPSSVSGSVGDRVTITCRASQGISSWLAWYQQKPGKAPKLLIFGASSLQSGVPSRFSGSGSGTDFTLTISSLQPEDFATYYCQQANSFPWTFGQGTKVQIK | 204000 |
| 75110_08F20A (antibody, V domains shown) VH: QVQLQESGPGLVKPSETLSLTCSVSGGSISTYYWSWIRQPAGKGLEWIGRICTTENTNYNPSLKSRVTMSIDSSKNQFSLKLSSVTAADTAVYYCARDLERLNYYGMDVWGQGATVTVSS VL: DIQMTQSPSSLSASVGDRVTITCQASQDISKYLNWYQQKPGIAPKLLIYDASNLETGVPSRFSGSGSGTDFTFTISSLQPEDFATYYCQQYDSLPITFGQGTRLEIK | 307000 |
| 75110_09N20A (antibody, V domains shown) VH: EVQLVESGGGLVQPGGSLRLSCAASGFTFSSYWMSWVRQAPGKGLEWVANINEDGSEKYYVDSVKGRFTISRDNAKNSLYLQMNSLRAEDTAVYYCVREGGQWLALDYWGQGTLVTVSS VL: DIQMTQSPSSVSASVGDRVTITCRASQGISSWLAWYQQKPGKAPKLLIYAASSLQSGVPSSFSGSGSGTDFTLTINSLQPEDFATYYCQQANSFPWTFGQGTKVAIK | 227000 |

In: Fill blank: measured gMFI of CD4+ of the binder 75110_07J24A (antibody, V domains shown) VH: QAQLQESGPGLVKPSETLSLTCTVSGGSISSYYYNWIRQPAGKGLEWIGRIYTSGRTDYNPSLKSRVTMSADTSKNQFSLKLSSVTAADTAVYYCARDEGPTDAFDIWGQGTMVTVSS VL: DIVMTQTPLSLPVTPGEPASISCRSSQSLLDSDDGNTYLDWYLQKPGQSPHLLIYTLSYRASGVPDRFSGSGSGSDFTLKISRVEAEDVGVYYCMQRIEFPFTFGPGTKVDIK is ____.
Out: 28400
